Where do the numbers come from? From ChEMBL document CHEMBL4261579.

# assayInfo: Selectivity index, ratio of CC50 for human MCF10 cells to IC50 for human MCF7 cells
# Format: toxicity
# assaySetup: MCF10 cells versus MCF7 cells, read-out: Ratio CC50/IC50
# reported selectivity ratio; entries follow

{"columns": ["compound", "selectivity ratio"],
 "data": [
  ["CCCCNCC(O)c1ccccc1 (configuration not stated)", 0.67],
  ["OC(CNCc1ccccc1)c1ccccc1 (configuration not stated)", 0.96],
  ["OC(CNCCCCc1ccccc1)c1ccc(Br)cc1 (configuration not stated)", 4.04],
  ["OC(CNCCCc1ccccc1)c1ccccc1 (configuration not stated)", 2.02],
  ["c1ccc(CN2CC2c2ccccc2)cc1 (configuration not stated)", 1.47],
  ["OC(CNCCCCc1ccccc1)c1ccccc1 (configuration not stated)", 2.88],
  ["OC(CNc1ccccc1)c1ccccc1 (configuration not stated)", 1.33],
  ["OC(CNCc1ccccc1)c1ccc(Br)cc1 (configuration not stated)", 2.18],
  ["OC(CNCCc1ccccc1)c1ccccc1 (configuration not stated)", 0.62],
  ["c1ccc(CCN2CC2c2ccccc2)cc1 (configuration not stated)", 0.2],
  ["c1ccc(CCCN2CC2c2ccccc2)cc1 (configuration not stated)", 1.44],
  ["c1ccc(CCCCN2CC2c2ccccc2)cc1 (configuration not stated)", 1.83]
]}
